So I've got a bunch of binders here, and I need their C4b CFA: time (min.) for 50% cleavage of C4b α-chain values.
# TARGET DESC: C4b (Homo sapiens (Human)) (UniProt P0C0L4)
# Sequence (P0C0L4 757-1446 limits assumed, chain 1 of 2): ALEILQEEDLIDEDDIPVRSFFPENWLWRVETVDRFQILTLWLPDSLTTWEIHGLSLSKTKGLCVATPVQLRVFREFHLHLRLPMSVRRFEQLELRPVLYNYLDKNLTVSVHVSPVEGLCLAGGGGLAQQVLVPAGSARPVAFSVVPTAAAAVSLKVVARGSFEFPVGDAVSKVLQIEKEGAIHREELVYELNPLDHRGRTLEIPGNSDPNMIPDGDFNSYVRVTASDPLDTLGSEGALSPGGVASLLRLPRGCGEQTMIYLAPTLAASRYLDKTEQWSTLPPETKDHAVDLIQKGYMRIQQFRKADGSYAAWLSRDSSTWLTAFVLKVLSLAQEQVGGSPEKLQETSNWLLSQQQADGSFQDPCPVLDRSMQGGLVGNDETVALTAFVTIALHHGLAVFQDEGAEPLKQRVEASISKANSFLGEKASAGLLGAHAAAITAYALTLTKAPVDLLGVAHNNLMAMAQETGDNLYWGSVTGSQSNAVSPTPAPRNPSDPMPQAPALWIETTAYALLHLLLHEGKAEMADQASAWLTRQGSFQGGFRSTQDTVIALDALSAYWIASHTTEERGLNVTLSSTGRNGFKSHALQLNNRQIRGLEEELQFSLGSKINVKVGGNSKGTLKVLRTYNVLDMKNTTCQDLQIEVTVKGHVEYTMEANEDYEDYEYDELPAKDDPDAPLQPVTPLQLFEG
# Sequence (P0C0L4 20-675 limits assumed, chain 2 of 2): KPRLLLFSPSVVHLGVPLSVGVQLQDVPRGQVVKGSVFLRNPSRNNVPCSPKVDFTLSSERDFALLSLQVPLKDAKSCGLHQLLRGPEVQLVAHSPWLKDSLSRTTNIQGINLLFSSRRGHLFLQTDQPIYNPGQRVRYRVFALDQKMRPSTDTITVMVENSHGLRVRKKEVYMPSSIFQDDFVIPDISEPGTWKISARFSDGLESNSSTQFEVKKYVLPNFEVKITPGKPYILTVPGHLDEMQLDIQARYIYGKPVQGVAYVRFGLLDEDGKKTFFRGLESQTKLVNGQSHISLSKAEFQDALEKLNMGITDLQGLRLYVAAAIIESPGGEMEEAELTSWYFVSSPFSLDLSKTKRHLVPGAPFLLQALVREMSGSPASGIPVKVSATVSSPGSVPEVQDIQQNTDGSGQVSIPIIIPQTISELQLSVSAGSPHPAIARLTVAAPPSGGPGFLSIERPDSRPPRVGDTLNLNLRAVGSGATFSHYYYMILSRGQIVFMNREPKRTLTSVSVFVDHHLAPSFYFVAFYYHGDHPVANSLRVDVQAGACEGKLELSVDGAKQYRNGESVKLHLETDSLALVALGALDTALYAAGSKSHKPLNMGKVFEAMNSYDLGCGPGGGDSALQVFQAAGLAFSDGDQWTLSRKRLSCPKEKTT
Give bare numbers, in min.

- BINDER: "D2D3M3M4 (Multi-1) (protein) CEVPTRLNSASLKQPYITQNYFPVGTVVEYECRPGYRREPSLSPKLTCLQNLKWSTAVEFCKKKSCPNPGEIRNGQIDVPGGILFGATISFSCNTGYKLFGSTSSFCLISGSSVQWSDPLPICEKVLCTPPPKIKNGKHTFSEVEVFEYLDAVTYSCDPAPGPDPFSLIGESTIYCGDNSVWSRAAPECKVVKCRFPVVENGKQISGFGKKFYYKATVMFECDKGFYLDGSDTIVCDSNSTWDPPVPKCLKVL"
  MEASUREMENT UNITS: "min"
  VALUE OBSERVED: 443
- BINDER: "D2D3M3M4 (Multi-4) (protein) CEVPTRLNSASLKQPYITQNYFPVGTVVEYECRPGYRREPSLSPKLTCLQNLKWSTAVEFCKKKSCPNPGEIRNGQIDVPGGILFGATISFSCNTGYKLIGKTSSFCLISGSSVQWSDKLPICEKVLCTPPPKIKNGKHTFSEVEVFEYLDAVTYSCDPAPGPDPFSLIGESTIYCGDNSVWSRAAPECKVVKCRFPVVENGKQISGFGKKFYYKATVMFECDKGFYLDGSDTIVCDSNSTWDPPVPKCLKVL"
  MEASUREMENT UNITS: "min"
  VALUE OBSERVED: 5.5
- BINDER: "D2D3M3M4 (F197I) (protein) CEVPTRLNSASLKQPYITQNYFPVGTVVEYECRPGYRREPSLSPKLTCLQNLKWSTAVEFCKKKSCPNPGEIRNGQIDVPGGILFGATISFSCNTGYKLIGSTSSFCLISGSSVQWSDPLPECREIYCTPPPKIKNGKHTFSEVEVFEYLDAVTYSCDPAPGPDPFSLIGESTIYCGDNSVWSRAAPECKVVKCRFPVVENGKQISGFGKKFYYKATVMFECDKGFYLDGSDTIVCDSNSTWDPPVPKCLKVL"
  MEASUREMENT UNITS: "min"
  VALUE OBSERVED: 66.7

Then there is this binder:
**Query** Respond only with C4b CFA: time (min.) for 50% cleavage of C4b α-chain recorded for D2D3M3M4 (Multi-5) or DCP (protein) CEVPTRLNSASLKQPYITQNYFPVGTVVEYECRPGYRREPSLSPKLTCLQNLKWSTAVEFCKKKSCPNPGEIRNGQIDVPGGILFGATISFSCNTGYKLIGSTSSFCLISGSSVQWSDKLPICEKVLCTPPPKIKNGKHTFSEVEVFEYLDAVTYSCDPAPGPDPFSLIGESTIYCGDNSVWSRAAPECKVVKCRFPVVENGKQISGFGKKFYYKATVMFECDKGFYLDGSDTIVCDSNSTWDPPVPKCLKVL
**Result** 3.1
